STUDY TARGET: Kir4.1 (Homo sapiens)
Construct: host or cells: CHO-K1
PROTOCOL TEXT: Whole-cell patch clamp, Kir4.1 currents in transfected CHO-K1 cells
Type: cell-based
REPORTED CONDITIONS: CHO-K1, 10 μM; -120 mV; read-out: Kir4.1 Inhibition ± SD (%) at 10 μM, -120 mV
Items are presented alongside their recorded inhibition at 10 µM.
Could you give the number and then its unit, please?

Worked cases, answers included:
CC1CCN(CCCNc2nccc(Nc3ccc4oc5ccccc5c4c3)n2)CC1: 95.5%
c1ccc2c(c1)oc1ccc(Nc3ccnc(NCCCN4CCN(C5COC5)CC4)n3)cc12: 81.5%
c1ccc(Nc2ccnc(NCCCN3CCOCC3)n2)cc1: 0.47%

Task: Recorded inhibition at 10 µM for `Fc1cnc(NCCCN2CCOCC2)nc1Nc1ccc2oc3ccccc3c2c1` , please?
Output: 7.77%

Task: Name the recorded inhibition at 10 µM for `CC(C)(C)OC(=O)NCCCNc1nccc(Nc2ccc3oc4ccccc4c3c2)n1` .
Output: 73.8%

====

STUDY TARGET: Kir4.1 (Homo sapiens, UniProt P78508)
Construct: host or cells: CHO-K1
Sequence (P78508 1-379): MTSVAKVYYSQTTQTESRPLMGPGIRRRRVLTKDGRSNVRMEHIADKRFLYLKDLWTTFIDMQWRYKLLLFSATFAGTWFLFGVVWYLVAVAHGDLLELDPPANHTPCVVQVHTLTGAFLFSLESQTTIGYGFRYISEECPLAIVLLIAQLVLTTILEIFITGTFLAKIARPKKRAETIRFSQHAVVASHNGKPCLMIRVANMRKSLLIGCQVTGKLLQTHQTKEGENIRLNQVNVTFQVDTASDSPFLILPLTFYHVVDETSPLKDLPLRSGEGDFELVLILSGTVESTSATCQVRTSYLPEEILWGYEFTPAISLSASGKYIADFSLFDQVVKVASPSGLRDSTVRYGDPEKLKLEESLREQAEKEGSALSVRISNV
PROTOCOL TEXT: Whole-cell patch clamp, Kir4.1 currents in transfected CHO-K1 cells
Format: cell-based
REPORTED CONDITIONS: CHO-K1, 10 μM; +50 mV; read-out: Kir4.1 Inhibition ± SD (%) at 10 μM, +50 mV
READOUT KIND: inhibition at 10 µM (%)
Express your answer in %, writing the number without its unit.

Take a look at these entries with their results.
Cc1cnc(NCCCN2CCOCC2)nc1Nc1ccc2oc3ccccc3c2c1: 97
c1ccc2c(c1)oc1ccc(Nc3cncc(NCCCN4CCOCC4)c3)cc12: 96.6
c1ccc2nc3ccc(Nc4ccnc(NCCCN5CCOCC5)n4)cc3cc2c1: 85.9

Task: Could you share which inhibition at 10 µM value was measured for `O=C(NCCCNc1nccc(Nc2ccc3oc4ccccc4c3c2)n1)N1CCOCC1` ?
Output: 84.2

====

STUDY TARGET: DAT (dopamine transporter) (Homo sapiens, UniProt Q01959)
Sequence (Q01959 whole entry): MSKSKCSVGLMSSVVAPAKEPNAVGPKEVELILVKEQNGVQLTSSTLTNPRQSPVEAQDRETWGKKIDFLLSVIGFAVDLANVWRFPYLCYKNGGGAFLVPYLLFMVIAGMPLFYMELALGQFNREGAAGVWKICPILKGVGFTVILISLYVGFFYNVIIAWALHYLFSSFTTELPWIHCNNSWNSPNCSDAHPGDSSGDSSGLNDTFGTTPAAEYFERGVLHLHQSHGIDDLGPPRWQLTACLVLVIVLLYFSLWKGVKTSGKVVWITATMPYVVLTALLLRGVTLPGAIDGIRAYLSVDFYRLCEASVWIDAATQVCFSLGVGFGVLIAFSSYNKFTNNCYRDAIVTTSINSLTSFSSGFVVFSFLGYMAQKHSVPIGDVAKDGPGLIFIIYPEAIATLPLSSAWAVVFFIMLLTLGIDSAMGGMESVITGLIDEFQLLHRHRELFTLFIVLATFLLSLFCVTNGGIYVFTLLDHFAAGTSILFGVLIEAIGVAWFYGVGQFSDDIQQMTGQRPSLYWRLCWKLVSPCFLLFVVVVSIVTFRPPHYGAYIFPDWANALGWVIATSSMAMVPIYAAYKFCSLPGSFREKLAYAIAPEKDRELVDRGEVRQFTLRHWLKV
PROTOCOL TEXT: DAT functional assay (fluorescent neurotransmitter transporter uptake)
READOUT KIND: IC50 (µM)
Express the result in µM but write the number alone.

Task: Quick one: IC50 for `c1ccc2c(c1)oc1ccc(Nc3ccnc(NCCCN4CCOCC4)n3)cc12` ?
Output: 5.2

====

// inhibition at 1 µM lookup, one value per entry
STUDY TARGET: Kir4.1 (Homo sapiens, UniProt P78508)
Construct: host or cells: CHO-K1
PROTOCOL TEXT: Whole-cell patch clamp, Kir4.1 currents in transfected CHO-K1 cells
Format: cell-based
REPORTED CONDITIONS: CHO-K1, 1 μM; -120 mV; read-out: Kir4.1 Inhibition ± SD (%) at 1 μM, -120 mV
Dear colleague, please return just the value in %, with no unit written.

Please review the entries below; each comes with its answer.
c1ccc2nc3ccc(Nc4ccnc(NCCCN5CCOCC5)n4)cc3cc2c1: 5.58
O=C(NCCCNc1nccc(Nc2ccc3oc4ccccc4c3c2)n1)N1CCOCC1: 1.97
CCN(CC)CCCNc1nccc(Nc2ccc3oc4ccccc4c3c2)n1: 2.21
c1ccc2c(c1)oc1ccc(Nc3cncc(NCCCN4CCOCC4)c3)cc12: -4.84

Task: inhibition at 1 µM of `c1ccc2c(c1)oc1ccc(Nc3ccnc(NCCCN4CCCCC4)n3)cc12` on Kir4.1 (Homo sapiens, UniProt P78508)?
Output: 74.5

Task: Under Kir4.1 (Homo sapiens, UniProt P78508): inhibition at 1 µM value of `c1ccc2c(c1)oc1ccc(Nc3ccnc(OCCCN4CCOCC4)n3)cc12` ?
Output: 4.14

Task: Any idea what inhibition at 1 µM came out for CC(CNc1nccc(Nc2ccc3oc4ccccc4c3c2)n1)CN1CCOCC1 (stereo not drawn) on Kir4.1 (Homo sapiens, UniProt P78508)?
Output: 2.58

Task: What measured inhibition at 1 µM is associated with `c1ccc2c(c1)oc1ccc(Nc3ccnc(NCCCN4CCSCC4)n3)cc12` on Kir4.1 (Homo sapiens, UniProt P78508)?
Output: 0.17

Task: Lookup: inhibition at 1 µM / Kir4.1 (Homo sapiens, UniProt P78508) / `C[C@@H]1CN(CCCNc2nccc(Nc3ccc4oc5ccccc5c4c3)n2)C[C@H](C)O1`
Output: -3.38

====

PROTOCOL TEXT: Brain penetration (plasma and brain concentration, LC-MS/MS)
Format: in vivo, mice
REPORTED CONDITIONS: male, C57BL/6J, mouse, brain, ip, 20 mg/kg, mice, 20 mg/kg i.p., 1 h post-dosing; read-out: Brain Calculated Concentration
READOUT KIND: concentration at 1 h
Your answer should be a number followed by the unit of measure.

Task: Suppose we examine the compound `c1ccc2c(c1)oc1ccc(Nc3ccnc(NCCCN4CCOCC4)n3)cc12` ; what concentration at 1 h value has been reported?
Output: 6690 ng/mL

====

Catalogue of inhibition at 10 µM values
STUDY TARGET: Kir4.1 (Homo sapiens)
Construct: host or cells: CHO-K1
PROTOCOL TEXT: Whole-cell patch clamp, Kir4.1 currents in transfected CHO-K1 cells
Format: cell-based
REPORTED CONDITIONS: CHO-K1, 10 μM; -120 mV; read-out: Kir4.1 Inhibition ± SD (%) at 10 μM, -120 mV
# value in %; strip the unit string

c1ccc2c3c([nH]c2c1)CCC(Nc1ccnc(NCCCN2CCOCC2)n1)C3 (stereo not shown) [JX3213]: 65.1
COC1CCN(CCCNc2nccc(Nc3ccc4oc5ccccc5c4c3)n2)CC1 [JX3246]: 89.5
c1cc(NC2CCCCC2)nc(NCCCN2CCOCC2)n1 [JX3202]: 2.79
c1ccc2c(c1)oc1ccc(Nc3cnc(NCCCN4CCOCC4)cn3)cc12 [JX3225]: 94.3

Task: Looking for the measured inhibition at 10 µM of c1ccc2c(c1)oc1ccc(Nc3cc(NCCCN4CCOCC4)ncn3)cc12 [JX3222] , can you help?
Output: 71.1

Task: Which inhibition at 10 µM value is on record for C[C@@H]1CN(CCCNc2nccc(Nc3ccc4oc5ccccc5c4c3)n2)C[C@H](C)O1 [JX3242] ?
Output: 94.2

Task: Give its inhibition at 10 µM value. Item: O=C1c2ccccc2-c2cc(Nc3ccnc(NCCCN4CCOCC4)n3)ccc21 [JX3211]
Output: 81

Task: What does the data say about its inhibition at 10 µM? Entry: c1ccc2c(c1)oc1ccc(Nc3ccnc(NCCCN4CCOCC4)n3)cc12 [JX3212]
Output: 97.3

Task: // lookup inhibition at 10 µM for COc1cnc(NCCCN2CCOCC2)nc1Nc1ccc2oc3ccccc3c2c1 [JX3218]
Output: 74.3

Task: Which inhibition at 10 µM value is on record for c1ccc2c(c1)oc1ccc(Nc3ccnc(NCCCN4CCCCCC4)n3)cc12 [JX3249] ?
Output: 94.9

Task: Item C1=Nc2ccccc2Oc2ccc(Nc3ccnc(NCCCN4CCOCC4)n3)cc21 [JX3214] has what recorded inhibition at 10 µM?
Output: 94.5

Task: For the compound CC1(C)C2CN(CCCNc3nccc(Nc4ccc5oc6ccccc6c5c4)n3)CC21 (stereo not shown) [JX3240] , what inhibition at 10 µM is on record?
Output: 97.3

Task: Need inhibition at 10 µM of c1ccc2c(c1)oc1ccc(Nc3ccnc(NCCCN4CCSCC4)n3)cc12 [JX3243] , thanks.
Output: 98.6

Task: If you can, please state the reported inhibition at 10 µM value of c1ccc2cc(Nc3ccnc(NCCCN4CCOCC4)n3)ccc2c1 [JX3205] .
Output: 8.88

====

PROTOCOL TEXT: Brain penetration (plasma and brain concentration, LC-MS/MS)
Format: in vivo, mice
REPORTED CONDITIONS: male, C57BL/6J, mouse, brain, intraperitoneal, 10 mg/kg, 1 h post-dosing; converted from 2533.3 ng/mL; read-out: brain concentration expressed as molar
READOUT KIND: concentration at 1 h

Task: Request the reported concentration at 1 h associated with `c1ccc2c(c1)oc1ccc(Nc3ccnc(NCCCN4CCOCC4)n3)cc12`
Output: ~6.3 µM
